Where these numbers come from: ChEMBL document CHEMBL1148104

EXPERIMENT_SUMMARY: Inhibition of rice alpha-glucosidase assessed as glucose release by Glucose B-test
Set-up: species or system Oryza sativa
MEASURED_METRIC: IC50 (µM)

I. OC[C@H]1NC[C@H](O)[C@@H]1O
II. OC[C@H]1NC[C@@H](O)[C@@H]1O
Of I and II , whose reported IC50 is numerically smaller? Please identify the chosen entry by its label.
II

* * *

STUDY_TARGET: Alpha-glucosidase MAL62 (Saccharomyces cerevisiae)
Sequence (P07265 whole entry): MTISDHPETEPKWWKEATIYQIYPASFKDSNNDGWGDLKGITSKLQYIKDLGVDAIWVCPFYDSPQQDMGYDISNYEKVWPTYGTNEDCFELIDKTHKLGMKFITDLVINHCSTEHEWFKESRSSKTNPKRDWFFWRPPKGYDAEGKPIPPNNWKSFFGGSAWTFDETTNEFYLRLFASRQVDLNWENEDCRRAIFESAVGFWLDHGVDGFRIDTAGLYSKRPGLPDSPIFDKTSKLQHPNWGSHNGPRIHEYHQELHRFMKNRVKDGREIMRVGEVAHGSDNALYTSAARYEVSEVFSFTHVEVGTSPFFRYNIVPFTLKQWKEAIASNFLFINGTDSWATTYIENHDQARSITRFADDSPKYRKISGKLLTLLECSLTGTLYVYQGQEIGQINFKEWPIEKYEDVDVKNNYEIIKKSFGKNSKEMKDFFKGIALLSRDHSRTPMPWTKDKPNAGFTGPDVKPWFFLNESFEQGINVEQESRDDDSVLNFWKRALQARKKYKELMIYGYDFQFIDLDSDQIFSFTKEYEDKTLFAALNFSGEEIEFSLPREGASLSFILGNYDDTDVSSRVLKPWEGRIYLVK
MEASURED_METRIC: IC50 (µM)

- SMILES: "OCCN1[C@H](CO)[C@@H](O)[C@H](O)[C@H]1CO"
  STUDY_TARGET: "Alpha-glucosidase MAL62 (Saccharomyces cerevisiae)"
  MEASUREMENT_UNITS: "µM"
  IC50: 260

1. OCCN1C[C@@H](O)[C@H](O)[C@H]1CO
2. OC[C@H]1NC[C@@H](O)[C@@H]1O
Of 1 and 2 , whose reported IC50 is numerically smaller? Please identify the chosen entry by its label.
2
(2: 0.84 µM, 1: 78 µM)
